Can you tell me IC50 for the items I'm about to list?
target: Human COX I (Homo sapiens, UniProt P23219); assay: biochemical; conditions: recombinant enzyme, CHAPS-solubilized insect cell membranes; arachidonic acid 10 μM; pre-incubation 10-20 minutes; pH 8.0; read-out: Human COX I ID50
Sequence (P23219 24-599): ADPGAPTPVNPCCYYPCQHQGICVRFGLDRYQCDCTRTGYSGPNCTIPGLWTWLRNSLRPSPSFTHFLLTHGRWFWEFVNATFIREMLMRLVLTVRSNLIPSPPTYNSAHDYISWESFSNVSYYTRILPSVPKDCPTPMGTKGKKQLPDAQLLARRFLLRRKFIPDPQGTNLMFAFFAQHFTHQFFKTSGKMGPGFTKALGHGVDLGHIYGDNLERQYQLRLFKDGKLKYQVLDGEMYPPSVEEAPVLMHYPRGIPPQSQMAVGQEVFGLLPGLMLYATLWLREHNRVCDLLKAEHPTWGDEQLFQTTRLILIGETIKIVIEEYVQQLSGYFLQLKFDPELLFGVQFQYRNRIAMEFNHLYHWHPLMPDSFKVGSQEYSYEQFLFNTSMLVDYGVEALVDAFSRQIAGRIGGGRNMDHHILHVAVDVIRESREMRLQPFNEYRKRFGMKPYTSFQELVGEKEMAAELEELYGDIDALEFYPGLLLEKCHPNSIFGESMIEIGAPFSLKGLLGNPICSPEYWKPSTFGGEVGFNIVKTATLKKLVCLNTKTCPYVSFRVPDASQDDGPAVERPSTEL
Give the value in µM but do not write µM after it.

# input Look up IC50: Cc1ccc(-c2cc(-c3ccc(Cl)cc3)n(-c3ccc(S(N)(=O)=O)cc3)n2)cc1 [Example 2d]
# output 12.7

# input Look up IC50: NS(=O)(=O)c1ccc(-n2nc(-c3ccccc3)cc2-c2ccc(Cl)cc2)cc1 [Example 2b]
# output 19.1

# input Look up IC50: COc1ccc(-c2cc(-c3ccc(OC)cc3)n(-c3ccc(S(N)(=O)=O)cc3)n2)cc1 [Example 2c]
# output 2.1

# input Look up IC50: Cc1ccc(-c2cc(-c3ccc(C)cc3)n(-c3ccc(S(N)(=O)=O)cc3)n2)cc1 [Example 2a]
# output 13.6

----------
target: Human COX II (Homo sapiens, UniProt P35354); construct: A 2.0 kb fragment containing the coding region of either human or murine COX-I or human or murine COX-II was cloned; CHAPS-solubilized preparation; experiment: COX II activity in vitro (PGE2 formed, ELISA); conditions: recombinant enzyme, CHAPS-solubilized insect cell membranes; arachidonic acid 10 μM; pre-incubation 10-20 minutes; pH 8.0; read-out: Human COX II ID50
Sequence (P35354 18-604): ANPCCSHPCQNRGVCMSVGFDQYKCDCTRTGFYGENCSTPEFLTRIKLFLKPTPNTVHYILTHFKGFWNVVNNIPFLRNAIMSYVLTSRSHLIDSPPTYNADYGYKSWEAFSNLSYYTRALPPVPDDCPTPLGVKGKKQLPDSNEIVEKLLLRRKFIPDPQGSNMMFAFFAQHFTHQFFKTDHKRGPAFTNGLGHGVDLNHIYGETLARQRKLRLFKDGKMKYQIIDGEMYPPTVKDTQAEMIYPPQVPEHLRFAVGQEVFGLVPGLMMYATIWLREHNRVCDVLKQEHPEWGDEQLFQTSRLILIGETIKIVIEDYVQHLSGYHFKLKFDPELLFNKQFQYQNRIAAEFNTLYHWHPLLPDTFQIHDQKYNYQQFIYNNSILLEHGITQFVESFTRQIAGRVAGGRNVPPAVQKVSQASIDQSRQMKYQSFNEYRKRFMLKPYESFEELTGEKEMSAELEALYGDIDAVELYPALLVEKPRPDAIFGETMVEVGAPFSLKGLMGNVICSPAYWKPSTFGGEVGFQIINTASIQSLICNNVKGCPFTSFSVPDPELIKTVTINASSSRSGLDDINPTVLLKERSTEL
Can you tell me pIC50 for the items I'm about to list?
Would you please state pIC50, meaning minus log10 of the concentration in mol/L, as a bare number?

# input Look up pIC50: `NS(=O)(=O)c1ccc(-n2nc(-c3ccc([N+](=O)[O-])cc3)cc2-c2ccc(Cl)cc2)cc1`
# output 6.15

# input Look up pIC50: `COc1ccc(-c2cc(-c3ccc(OC)cc3)n(-c3ccc(S(N)(=O)=O)cc3)n2)cc1`
# output 6.30
